experiment: DNDI: Cytotoxicity against L-6 rat myoblasts from skeletal muscle cells; details: L6 rat skeletal muscle myoblast cells, IC50
Listing of entries alongside the reported IC50.
Express it in µM; write the number only.

OC(c1ccc(Cl)cc1)(c1ccc(Cl)cc1)c1ccco1 | 48
FC(F)(F)c1ccc(C(c2cccnc2)N2CCC(Oc3ccccc3)CC2)cc1 (stereo not given) | 54.4

// Fc1ccccc1OC1CCN(C(c2ccc(C(F)(F)F)cc2)c2cccnc2)CC1 (stereo not given) : IC50 value = 67.8

Field IC50 (entry CC(c1ccc(C(F)(F)F)cc1)N1CCC(NC(c2cccnc2)c2ccc(Cl)cc2F)CC1 (stereo not given) ) reads 19.5
